Test system: α1-adrenoceptors
assay-method-text: inhibition of [7-methoxy-3H]prazosin binding to α1-adrenoceptors in rat whole cortical tissue
condition-set: at 10^-6 M; rat whole cortex, [7-methoxy-3H]prazosin; 30 min, 1 µM
Method: Whole cortical tissue from the brains of male Charles River CD rats weighing between 150-250 g were homogenised in ice-cold 50 mM Tris-HCl, pH 7.6 (at 25° C.; 1:40 w/v) and centrifuged at 1000 g at 4° C. for 10 minutes. The supernatant was centrifuged at 30,000 g at 4° C. for 10 minutes. […] The filters were washed with ice-cold Tris-HCl buffer and dried. The filters were punched out into vials, scintillation fluid added and radioactivity determined by liquid scintillation counting. […]
measured-attribute: % displacement of radio ligand, α1 (%)

Worked examples follow.
molecule	% displacement of radio ligand, α1 (%)
CSc1ncccc1C(=O)NCC1CCN(C[C@H]2COc3ccc(F)cc3O2)CC1 [Example 44]	38
O=C(NCC1CCN(C[C@H]2COc3ccc(Cl)cc3O2)CC1)c1ccc(-n2cccc2)nc1 [Example 40]	60
O=C(NCC1CCN(C[C@H]2COc3cccc(Cl)c3O2)CC1)c1ccc(-n2cccc2)nc1 [Example 50]	98
CSc1ncccc1C(=O)NCC1CCN(C[C@H]2COc3ccc(Br)cc3O2)CC1 [Example 38]	51
CSc1ncccc1C(=O)NCC1CCN(C[C@H]2COc3ccc(C)cc3O2)CC1 [Example 33]	41

[P] O=C(NCC1CCN(C[C@H]2COc3ccc(Br)cc3O2)CC1)c1ccc(-n2cccc2)nc1 [Example 37]
[Q] O=C(NCC1CCN(C[C@H]2COc3ccc(Br)cc3O2)CC1)c1cncc(Br)c1 [Example 39]
INPUT: P or Q : whose % displacement of radio ligand, α1 is greater? Give the label under which the chosen entry appears.
OUTPUT: P

* * *

Test system: α1-adrenoceptors
assay-method-text: inhibition of [7-methoxy-3H]prazosin binding to α1-adrenoceptors in rat whole cortical tissue
condition-set: at 10^-6 M; rat whole cortex, [7-methoxy-3H]prazosin; 30 min, 1 µM
measured-attribute: % displacement of radio ligand, α1 (%)

Worked examples follow.
compound	units-of-measure	% displacement of radio ligand, α1
Nc1ncccc1C(=O)NCC1CCN(C[C@H]2COc3ccc(Cl)cc3O2)CC1	%	89
CSc1ncccc1C(=O)NCC1CCN(C[C@H]2COc3cccc(C(F)(F)F)c3O2)CC1	%	93
O=C(NCC1CCN(C[C@H]2COc3cccc(C(F)(F)F)c3O2)CC1)c1cccnc1	%	94
Nc1ncccc1C(=O)NCC1CCN(CC2COc3ccccc3O2)CC1 (stereo not shown)	%	89
O=C(NCC1CCN(C[C@H]2COc3ccc(Cl)cc3O2)CC1)c1cncc(Br)c1	%	62

[A] Cc1ccc2c(c1)O[C@@H](CN1CCC(CNC(=O)c3cncc(Br)c3)CC1)CO2
[B] Cc1ccc2c(c1)O[C@@H](CN1CCC(CNC(=O)c3cccnc3C)CC1)CO2
INPUT: A or B : whose % displacement of radio ligand, α1 is greater? Give the label under which the chosen entry appears.
OUTPUT: A
(A: 68%, B: 41%)

Values were extracted from patent US5935973A.
